The reported measurements were obtained from patent US20230017532A1.

# Tested on: Acinetobacter baumannii ATCC17978
# experiment: Antimicrobial susceptibility testing: 90% growth inhibitory concentration (IC90) determination, Iso-Sensitest broth, OD 600 nm
# Format: cell-based
# conditionParameters: Acinetobacter baumannii, ATCC17978, 16 h, 90% growth inhibitory concentration, Acinetobacter baumannii ATCC17978, Iso-Sensitest broth, OD 600 nm over 16 h; read-out: ATCC 17978 IC90
Where a name gives a salt, the structure may show the parent alone.
Field: label. Allowed values: Satisfied (IC90 < 600 nM) or Not satisfied (IC90 >= 600 nM).

Completed entries (count: 4):
# compound, labelClass
rows = [
    ("Cc1cc(Nc2nccn3c(-c4ccc(OC(F)F)cc4)cnc23)ccc1C(=O)NCCS(=O)(=O)CCN", "Satisfied"),
    ("COc1ccc(-c2cnc3c(Nc4ccc(C(=O)NCCSCCN)c(C)c4)nccn23)cc1F", "Satisfied"),
    ("Cc1cc(Nc2nccn3c(-c4ccc(Cl)c(F)c4F)cnc23)ccc1C(=O)NCCOCCN [Example 88, hydrochloride]", "Satisfied"),
    ("COc1ccc(-c2cnc3c(Nc4ccc(C(=O)NCCNCCN)c(C)c4)nccn23)cc1 [Example 104, hydrochloride]", "Satisfied"),
]

API: query returns whether the compound falls strictly under 600 nM in IC90. Query: CNCCOCCNC(=O)c1ccc(Nc2nccn3c(-c4ccc(OC)cc4)cnc23)cc1C
Satisfied

API: query returns whether the compound falls strictly under 600 nM in IC90. Query: Cc1cc(Nc2nccn3c(-c4ccc(OC(F)F)cc4)cnc23)ccc1C(=O)NCCOCCNS(C)(=O)=O
Satisfied

API: query returns whether the compound falls strictly under 600 nM in IC90. Query: N#CCOc1ccc(-c2cnc3c(Nc4ccc(C(=O)NCCOCCn5ccnc5)c(Cl)c4)nccn23)c(F)c1F
Satisfied
